Reference source: patent US8236792B2

system: rat H3 receptor (Rattus norvegicus, UniProt Q9QYN8)
Construct: expressed in transfected cells; host or cells: SK-N-MC sublines with a reporter construct
Sequence (Q9QYN8 whole entry): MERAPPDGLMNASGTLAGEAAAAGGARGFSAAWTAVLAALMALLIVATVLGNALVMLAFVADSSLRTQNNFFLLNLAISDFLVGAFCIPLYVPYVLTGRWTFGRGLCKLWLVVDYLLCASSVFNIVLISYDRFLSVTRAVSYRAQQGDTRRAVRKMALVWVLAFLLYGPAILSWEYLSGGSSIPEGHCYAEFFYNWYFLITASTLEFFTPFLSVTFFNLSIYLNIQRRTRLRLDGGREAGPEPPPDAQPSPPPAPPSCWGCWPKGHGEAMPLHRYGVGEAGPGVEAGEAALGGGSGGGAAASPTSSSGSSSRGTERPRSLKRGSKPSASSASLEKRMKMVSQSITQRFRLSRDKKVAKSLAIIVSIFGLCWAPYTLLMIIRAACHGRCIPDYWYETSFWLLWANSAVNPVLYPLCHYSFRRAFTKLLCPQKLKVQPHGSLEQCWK
measurement.protocol: Cyclic AMP Accumulation (rat H3 reporter subline)
Format: cell-based
assay.context: SK-N-MC subline with reporter construct and rat H3 receptor; free base or trifluoroacetate salt; average; read-out: Rat pA2 (converted)
assay.metric: Kb (nM)
Answers are plain numbers, in nM.

Here are 9 compounds together with their reported answers.
given_smiles=O=C([C@H]1C[C@H](Oc2cccc(F)c2)CN1)N1CCCN(C2CCC2)CC1 system="rat H3 receptor (Rattus norvegicus, UniProt Q9QYN8)" assay_metric=Kb observed=7.41
given_smiles=CC(=O)N1C[C@@H](Oc2ccsc2)C[C@@H]1C(=O)N1CCCN(C2CCC2)CC1 system="rat H3 receptor (Rattus norvegicus, UniProt Q9QYN8)" assay_metric=Kb observed=8.71
given_smiles=N#Cc1ccc(O[C@@H]2CN[C@@H](C(=O)N3CCCN(C4CCC4)CC3)C2)cc1 system="rat H3 receptor (Rattus norvegicus, UniProt Q9QYN8)" assay_metric=Kb observed=12.9
given_smiles=CSc1ccc(O[C@H]2CN[C@H](C(=O)N3CCCN(C4CCC4)CC3)C2)cc1 system="rat H3 receptor (Rattus norvegicus, UniProt Q9QYN8)" assay_metric=Kb observed=112
given_smiles=O=C([C@H]1C[C@H](Oc2ccccc2)CN1)N1CCCN(C2CCC2)CC1 system="rat H3 receptor (Rattus norvegicus, UniProt Q9QYN8)" assay_metric=Kb observed=57.5
given_smiles=Cc1cc(O[C@@H]2CN[C@@H](C(=O)N3CCCN(C4CCC4)CC3)C2)ccc1Cl system="rat H3 receptor (Rattus norvegicus, UniProt Q9QYN8)" assay_metric=Kb observed=4.9
given_smiles=N#Cc1ccc(O[C@H]2CN[C@H](C(=O)N3CCCN(C4CCC4)CC3)C2)cc1 system="rat H3 receptor (Rattus norvegicus, UniProt Q9QYN8)" assay_metric=Kb observed=110
given_smiles=CSc1ccc(O[C@@H]2CN[C@@H](C(=O)N3CCCN(C4CCC4)CC3)C2)cc1 system="rat H3 receptor (Rattus norvegicus, UniProt Q9QYN8)" assay_metric=Kb observed=10.7
given_smiles=CC(=O)N1C[C@@H](Oc2ccc(F)cc2)C[C@@H]1C(=O)N1CCCN(C2CCC2)CC1 system="rat H3 receptor (Rattus norvegicus, UniProt Q9QYN8)" assay_metric=Kb observed=1.62

Next item in the queue.
For O=C([C@H]1C[C@H](Oc2ccsc2)CN1)N1CCCN(C2CCC2)CC1 , what is its reported Kb?
21.9
